system: L1210; test: Cytotoxicity against mouse L1210 cells assessed as reduction in cell viability; format: functional, cell-based
PROPERTY: pIC50
Scale explanation: pIC50 corresponds to minus log10 of a concentration expressed in moles per litre.

So, Cc1cn(CCCN2C(=O)C(OCc3ccccc3)C2c2ccc(Br)cc2)c(=O)n(CCCN2C(=O)C(OCc3ccccc3)C2c2ccc(Br)cc2)c1=O (stereo unspecified) ? Its pIC50 was 5.39

----------
biological target: Tubulin; test: Inhibition of tubulin (unknown origin) polymerization incubated for 5 mins by spectrophotometer analysis
PROPERTY: IC50
Report as: number unit

So, COc1cc(N2C(=O)[C@H](c3cccs3)[C@H]2c2cccc(N=[N+]=[N-])c2)cc(OC)c1OC ? Its IC50 was 2260 nM
